Ref: paper doi:10.1101/2021.10.07.463234v2

target: SARS-CoV-2 Mac1 (Severe acute respiratory syndrome coronavirus 2, UniProt P0DTD1); test: biochemical; details: read-out: %inhibition
Where a name gives a salt, the structure may show the parent alone.

compound: O=C[C@H](O)[C@@H](O)[C@H](O)CO [Xylose]
measurement_unit: %
inhibition at 100 µM: 0
//
compound: CCC(Cc1c(I)cc(I)c(N)c1I)C(=O)O (stereo not shown) [Iopanoic acid]
measurement_unit: %
inhibition at 100 µM: 0
//
compound: Cc1cnc(NC(=O)C2=C(O)c3ccccc3S(=O)(=O)N2C)s1 [Meloxicam]
measurement_unit: %
inhibition at 100 µM: 41.6
//
compound: NNc1nncc2ccccc12 [Hydralazine HCl]
measurement_unit: %
inhibition at 100 µM: 6.58
//
compound: CC(C)Cn1cnc2c(N)nc3ccccc3c21 [Imiquimod]
measurement_unit: %
inhibition at 100 µM: 26.3
//
compound: c1ccc2c(c1)CCCC2C1=NCCN1 (stereo not shown) [Tetrahydrozoline HCl]
measurement_unit: %
inhibition at 100 µM: 0
//
compound: Cc1noc(NS(=O)(=O)c2ccc(N)cc2)c1C [Sulfisoxazole]
measurement_unit: %
inhibition at 100 µM: 20.4
//
compound: CN(C)c1nc(N(C)C)nc(N(C)C)n1 [Altretamine]
measurement_unit: %
inhibition at 100 µM: 19.5
//
compound: O=C(O[C@@H]1C[C@@H]2C[C@H]3C[C@H](C1)N2CC3=O)c1c[nH]c2ccccc12 [Dolasetron]
measurement_unit: %
inhibition at 100 µM: 7.05
//
compound: CC(O)C(=O)O (stereo not shown) [Ammonium lactate]
measurement_unit: %
inhibition at 100 µM: 16.4

====

# %inhibition per entry
target: SARS-CoV-2 Mac1 (Severe acute respiratory syndrome coronavirus 2, UniProt P0DTD1); assay: biochemical; conditions: 100 µM; inhibitor
Structures can show the parent of a compound that is named as a salt.

compound: CCN(C)C(=O)Oc1cccc([C@H](C)N(C)C)c1 [Rivastigmine]
target: SARS-CoV-2 Mac1 (Severe acute respiratory syndrome coronavirus 2, UniProt P0DTD1)
%inhibition [%]: 0
--
compound: CCOC(=O)C1=C(COCCN)NC(C)=C(C(=O)OC)C1c1ccccc1Cl (centres unmarked) [Amlodipine Besylate]
target: SARS-CoV-2 Mac1 (Severe acute respiratory syndrome coronavirus 2, UniProt P0DTD1)
%inhibition [%]: 25.29
--
compound: CN1[C@@H]2CCC[C@H]1C[C@@H](NC(=O)c1nn(C)c3ccccc13)C2 [Granisetron]
target: SARS-CoV-2 Mac1 (Severe acute respiratory syndrome coronavirus 2, UniProt P0DTD1)
%inhibition [%]: 0.5264
--
compound: CCOCCn1c(N2CCCN(C)CC2)nc2ccccc21 [Emedastine]
target: SARS-CoV-2 Mac1 (Severe acute respiratory syndrome coronavirus 2, UniProt P0DTD1)
%inhibition [%]: 0
--
compound: CC(C)NCC(O)COc1ccc(CCOCC2CC2)cc1 (centres unmarked) [Betaxolol HCl]
target: SARS-CoV-2 Mac1 (Severe acute respiratory syndrome coronavirus 2, UniProt P0DTD1)
%inhibition [%]: 10.86

====

biological target: SARS-CoV-2 Mac1 (Severe acute respiratory syndrome coronavirus 2, UniProt P0DTD1); test: biochemical; settings: read-out: %inhibition
Structures can show the parent of a compound that is named as a salt.
# inhibition at 100 µM per entry

molecule: CC[C@H](c1ccc(O)cc1)[C@@H](CC)c1ccc(O)cc1 [Hexestrol]
target: SARS-CoV-2 Mac1 (Severe acute respiratory syndrome coronavirus 2, UniProt P0DTD1)
inhibition at 100 µM / %: 0
//
molecule: C=C=CCNC(=O)c1ccc(F)cc1 [Diastase]
target: SARS-CoV-2 Mac1 (Severe acute respiratory syndrome coronavirus 2, UniProt P0DTD1)
inhibition at 100 µM / %: 0
//
molecule: CCN(CCCCOC(=O)c1ccc(OC)c(OC)c1)C(C)Cc1ccc(OC)cc1 (centres unmarked) [Mebeverine Hydrochloride]
target: SARS-CoV-2 Mac1 (Severe acute respiratory syndrome coronavirus 2, UniProt P0DTD1)
inhibition at 100 µM / %: 5.64
//
molecule: [O-][n+]1cccc(CO)c1 [Mepiroxol]
target: SARS-CoV-2 Mac1 (Severe acute respiratory syndrome coronavirus 2, UniProt P0DTD1)
inhibition at 100 µM / %: 12.3
//
molecule: COC(=O)[C@H]1[C@H]2C[C@@H]3c4[nH]c5cc(OC)ccc5c4CCN3C[C@H]2C[C@@H](OC(=O)c2cc(OC)c(OC)c(OC)c2)[C@@H]1OC [Reserpine]
target: SARS-CoV-2 Mac1 (Severe acute respiratory syndrome coronavirus 2, UniProt P0DTD1)
inhibition at 100 µM / %: 0
//
molecule: Cc1nc(=O)c2cc(CN(C)c3ccc(C(=O)N[C@@H](CCC(=O)O)C(=O)O)s3)ccc2[nH]1 [Raltitrexed]
target: SARS-CoV-2 Mac1 (Severe acute respiratory syndrome coronavirus 2, UniProt P0DTD1)
inhibition at 100 µM / %: 24.8
//
molecule: Cc1nc(Nc2ncc(C(=O)Nc3c(C)cccc3Cl)s2)cc(N2CCN(CCO)CC2)n1 [dasatinib]
target: SARS-CoV-2 Mac1 (Severe acute respiratory syndrome coronavirus 2, UniProt P0DTD1)
inhibition at 100 µM / %: 78.6
//
molecule: COc1cc(Nc2c(C#N)cnc3cc(OCCCN4CCN(C)CC4)c(OC)cc23)c(Cl)cc1Cl [Bosutinib (SKI-606)]
target: SARS-CoV-2 Mac1 (Severe acute respiratory syndrome coronavirus 2, UniProt P0DTD1)
inhibition at 100 µM / %: 55.6

====

# inhibition at 100 µM per entry
molecular target: SARS-CoV-2 Mac1 (Severe acute respiratory syndrome coronavirus 2); assay: biochemical; details: read-out: %inhibition
Counter-ions that a name gives are not always drawn.

compound: CCOC(=O)c1c(C)n(C)c2ccc(O)cc12 [Mecarbinate]
target: SARS-CoV-2 Mac1 (Severe acute respiratory syndrome coronavirus 2)
inhibition at 100 µM, %: 0
--
compound: Cn1ccnc1S [Methimazole]
target: SARS-CoV-2 Mac1 (Severe acute respiratory syndrome coronavirus 2)
inhibition at 100 µM, %: 0
--
compound: CC(C)[C@H]1C(=O)N[C@@H](CCCN=C(N)N)C(=O)NCC(=O)N[C@@H](CC(=O)O)C(=O)N[C@H](Cc2ccccc2)C(=O)N1C [Cilengitide?trifluoroacetate]
target: SARS-CoV-2 Mac1 (Severe acute respiratory syndrome coronavirus 2)
inhibition at 100 µM, %: 10.8
--
compound: CC(C(=O)O)c1ccc(C(=O)c2cccs2)cc1 (stereo not drawn) [Suprofen]
target: SARS-CoV-2 Mac1 (Severe acute respiratory syndrome coronavirus 2)
inhibition at 100 µM, %: 18
--
compound: CN(C)CCC(c1ccccc1)c1ccccn1 (stereo not drawn) [Pheniramine Maleate]
target: SARS-CoV-2 Mac1 (Severe acute respiratory syndrome coronavirus 2)
inhibition at 100 µM, %: 9.19
--
compound: CCCCCCCCCC(=O)N[C@@H](Cc1c[nH]c2ccccc12)C(=O)N[C@H](CC(N)=O)C(=O)N[C@@H](CC(=O)O)C(=O)N[C@@H]1C(=O)NCC(=O)N[C@@H](CCCN)C(=O)N[C@@H](CC(=O)O)C(=O)N[C@H](C)C(=O)N[C@@H](CC(=O)O)C(=O)NCC(=O)N[C@H](CO)C(=O)N[C@@H]([C@H](C)CC(=O)O)C(=O)N[C@@H](CC(=O)c2ccccc2N)C(=O)O[C@@H]1C [Daptomycin]
target: SARS-CoV-2 Mac1 (Severe acute respiratory syndrome coronavirus 2)
inhibition at 100 µM, %: 1.7

====

biological target: SARS-CoV-2 Mac1 (Severe acute respiratory syndrome coronavirus 2); experiment: biochemical; conditions: read-out: %inhibition
Counter-ions that a name gives are not always drawn.
Class true: inhibition at 100 µM at least 6%. Class false: inhibition at 100 µM below 6%.

compound: COc1ccc(/C=C/C(=O)Nc2ccccc2C(=O)O)cc1OC
class_assignment: false
//
compound: CC(C)c1cc2c(cc1S(=O)(=O)O)[C@@]1(C)CCC[C@@](C)(C(=O)O)[C@@H]1CC2 [Ecabet sodium]
class_assignment: true
//
compound: CN1CCN(C(c2ccccc2)c2ccccc2)CC1 [Cyclizine 2HCl]
class_assignment: true
//
compound: CCCCc1nc(C)c(CC(=S)N(C)C)c(=O)n1Cc1ccc(-c2ccccc2-c2nnn[nH]2)cc1
class_assignment: true
//
compound: Clc1ccc(C(OCCN2CCCCC2)c2ccccc2)cc1 (stereo not drawn) [Cloperastine hydrochloride]
class_assignment: false
//
compound: CCCCN1CCCCC1C(=O)Nc1c(C)cccc1C (stereo not drawn) [Bupivacaine HCl]
class_assignment: false
//
compound: CN1CCCCC1CCN1c2ccccc2Sc2ccc([S+](C)[O-])cc21 (stereo not drawn) [Mesoridazine Besylate]
class_assignment: true
//
compound: CC(C)(CO)[C@@H](O)C(=O)NCCCO
class_assignment: false
//
compound: CCOC(=O)[C@H](CCc1ccccc1)N[C@@H](C)C(=O)N1Cc2cc(OC)c(OC)cc2C[C@H]1C(=O)O [Moexipril HCl]
class_assignment: false
//
compound: O=c1[nH]cc(F)c(=O)[nH]1
class_assignment: false
//
compound: CN(C(=O)CN(CCO)CC(=O)N(C)C(C)(C)Cc1ccccc1)C(C)(C)Cc1ccccc1
class_assignment: true
//
compound: O=c1oc2cc(O)ccc2s1
class_assignment: true
//
compound: Cn1nnc(-c2ccc(-c3ccc(N4C[C@H](CO)OC4=O)cc3F)cn2)n1
class_assignment: false
//
compound: CCC(=O)O[C@]1(C(=O)CCl)[C@@H](C)C[C@H]2[C@@H]3CCC4=CC(=O)C=C[C@]4(C)[C@@]3(F)[C@@H](O)C[C@@]21C [Clobetasol propionate]
class_assignment: true
//
compound: COc1ccc(O)cc1
class_assignment: false
//
compound: CCCCC1=NC2(CCCC2)C(=O)N1Cc1ccc(-c2ccccc2-c2nnn[nH]2)cc1
class_assignment: false
//
compound: CC1=NN(c2ccccc2)C(=O)C1
class_assignment: false
//
compound: CCOC(CN1CCN(CC(C)C(=O)c2ccccc2)CC1)c1ccccc1 (stereo not drawn) [Eprazinone 2HCl]
class_assignment: false
